The following molecules are shown together with reported IC50 values.
- System: Granta (-4, -22 and -519) mantle cell lymphoma cell lines
- Run Description: MTT cell viability assay, Granta
- Format: cell-based, human
- Assay Context: Homo sapiens, 96 h; Granta-4, -22, -519, MTT, 4 days

{"Molecule": "Cc1ccc2nc(CN(CCN(Cc3nc4ccc(C)cc4[nH]3)Cc3nc4ccc(C)cc4[nH]3)Cc3nc4ccc(C)cc4[nH]3)[nH]c2c1", "IC50": "~1700 nM"}
{"Molecule": "COc1cccc2c1C(=O)c1c(O)c3c(c(O)c1C2=O)C[C@@](O)(C(=O)CO)C[C@@H]3O[C@H]1C[C@H](N)[C@H](O)[C@H](C)O1 [doxorubicin, reference compound]", "IC50": "10 to 20 nM"}
